For each of the variants below, state its response.
B1: GvpF fused to NGFP or CGFP (split-GFP) [Halobacterium salinarum PHH1] / GvpA fused to NGFP or CGFP (split-GFP) [Halobacterium salinarum PHH1] (parent complex)
chain 1: MTENLYTYGIIEQEDLELDVEGVAGAEQVYTVDYKTLSAVVSDIDTTDPERTDEDVEAHNNVLQEVLKHEEERTVVPMSFGMAFKSARTLKGVLRGARRALRSTLNDIEGTVELGVKILGPGDDTVPREEIQENVTDQLADLSINETENDLFTDRLIINKSYLVDFEKRDAFDSAIDDVEAEYDELTIQYTGPWPPYNFVDIHIGAEQQQGGR
chain 2: MAQPDSSGLAEVLDRVLDKGVVVDVWARVSLVGIEILTVEARVVAASVDTFLHYAEEIAKIEQAELTAGAEAAPEA

# Variants of: B1
# test: split-GFP; in Hfx. volcanii; FN fusion protein used as interaction partner; two biological and three technical replicates; parent: 20; read off a plot

# count of solved cases: 5
mutationKey: chain 2 Y54A
response: ~14 relative fluorescence
--
mutationKey: chain 2 A46Y
response: ~11 relative fluorescence
--
mutationKey: chain 2 R42A
response: ~12 relative fluorescence
--
mutationKey: chain 2 L17A
response: ~13 relative fluorescence
--
mutationKey: chain 2 V29D
response: ~19 relative fluorescence

For the 7 variants below, give their response values.
1. chain 2 H53A
2. chain 2 E65A
3. chain 2 A41E
4. chain 2 D5A
5. chain 2 T38A
6. chain 2 A27E
7. chain 2 I61A

Reply:
1. ~12 relative fluorescence
2. ~13 relative fluorescence
3. ~19 relative fluorescence
4. ~10 relative fluorescence
5. ~13 relative fluorescence
6. ~5.2 relative fluorescence
7. ~16 relative fluorescence

Where do these numbers come from? They come from paper PMC7688916.
